Where do the numbers come from? From ChEMBL document CHEMBL3784990.

- experimental details: Cytotoxicity against human H1299 cells after 72 hrs by MTS assay
- Format: functional, cell-based
- condition label: NCI-H1299, 72 h
Please note: IC50 exactly at 50 µM is f. Only values below 50 µM get t.

>  <mol>
COc1ccccc1Nc1nc(Nc2ccccc2OC)nc(C(=O)NNc2ccccc2)n1

>  <class label>
t

$$$$
>  <mol>
O=C(NNc1ccccc1)c1nc(Nc2ccc(Cl)cc2)nc(Nc2ccc(Cl)cc2)n1

>  <class label>
t

$$$$
>  <mol>
NNC(=O)c1nc(N)nc(Nc2ccccc2)n1

>  <class label>
f

$$$$
>  <mol>
COc1ccc(Nc2nc(N)nc(C(=O)NN)n2)cc1

>  <class label>
f

$$$$
>  <mol>
Nc1nc(COC(=O)c2ccc([N+](=O)[O-])cc2)nc(Nc2ccccc2)n1

>  <class label>
t

$$$$

* * *

- assayed system: Ubiquitin-conjugating enzyme E2 B (Homo sapiens)
- experimental details: Inhibition of human recombinant Rad6B assessed as suppression of H2A substrate ubiquitination at 25 nM pre-incubated for 1 hr before H2A addition by Western blot analysis
Calls of active or inactive are those of the source. The rule behind the calls is not given here.

>  <mol>
COc1ccc(Nc2nc(Nc3ccc(OC)cc3)nc(C(=O)NNc3ccccc3)n2)cc1

>  <assayed system>
Ubiquitin-conjugating enzyme E2 B (Homo sapiens)

>  <inhibition>
Active

$$$$
>  <mol>
Nc1nc(COC(=O)c2ccc([N+](=O)[O-])cc2)nc(Nc2ccccc2)n1

>  <assayed system>
Ubiquitin-conjugating enzyme E2 B (Homo sapiens)

>  <inhibition>
Active

$$$$
>  <mol>
O=C(NNc1ccccc1)c1nc(Nc2ccccc2)nc(Nc2ccccc2)n1

>  <assayed system>
Ubiquitin-conjugating enzyme E2 B (Homo sapiens)

>  <inhibition>
Active

$$$$
>  <mol>
Cc1ccc(Nc2nc(Nc3ccc(C)cc3)nc(C(=O)NNc3ccccc3)n2)cc1

>  <assayed system>
Ubiquitin-conjugating enzyme E2 B (Homo sapiens)

>  <inhibition>
Active

$$$$
>  <mol>
O=C(NNc1ccccc1)c1nc(Nc2ccc(Cl)cc2)nc(Nc2ccc(Cl)cc2)n1

>  <assayed system>
Ubiquitin-conjugating enzyme E2 B (Homo sapiens)

>  <inhibition>
Active

$$$$

* * *

- Test system: HT-29
- experimental details: Cytotoxicity against human HT-29 cells after 72 hrs by MTS assay
- Assay type: functional, cell-based
- condition label: HT-29, 72 h
pIC50: −log10 of the molar value.
measured attribute: pIC50

>  <mol>
Cc1ccc(Nc2nc(N)nc(C(=O)NN)n2)cc1

>  <obs value>
5.35

$$$$
>  <mol>
O=C(NNc1ccccc1)c1nc(Nc2ccc(Cl)cc2)nc(Nc2ccc(Cl)cc2)n1

>  <obs value>
5.39

$$$$
>  <mol>
O=C(NNc1ccccc1)c1nc(Nc2ccccc2)nc(Nc2ccccc2)n1

>  <obs value>
5.02

$$$$
>  <mol>
Nc1nc(COC(=O)c2ccc([N+](=O)[O-])cc2)nc(Nc2ccccc2)n1

>  <obs value>
5.08

$$$$
>  <mol>
COc1ccccc1Nc1nc(N)nc(C(=O)NN)n1

>  <obs value>
5.07

$$$$
>  <mol>
COc1ccccc1Nc1nc(Nc2ccccc2OC)nc(C(=O)NNc2ccccc2)n1

>  <obs value>
5.05

$$$$
